Listed compounds paired with reported Inhibitory concentration
- method_summary: Effect of compound on gelation time of human serum induced by dithiothreitol (DTT)
- Type: ADME
Only the number, expressed in mM, is required.

As a guide, the following entries are already answered.
INSERT INTO results (compound, test_result) VALUES
  ('C=CCSSCC=C [DIALLYLDISULFIDE]', 20),
  ('CC(=O)C=O [METHYLGLYOXAL]', 20),
  ('NC(CSSCC(N)C(=O)O)C(=O)O (stereo not drawn)', 20);

May I ask what Inhibitory concentration has been recorded for C=CCSS/C=C/C[S+]([O-])CC=C (stereo not drawn) [AJOENE] ?
10

May I ask what Inhibitory concentration has been recorded for O=C1OC(C(O)CO)C(=O)C1=O (stereo not drawn) [DEHYDROASCORBIC ACID] ?
20

----------
- method_summary: Effect of compound on gelation time of human serum induced by dithiothreitol (DTT)
- Type: ADME
Listed compounds paired with reported Inhibitory concentration

INSERT INTO measurements (compound, measurement_name, test_result) VALUES
  ('O=C1O[C@H]([C@@H](O)CO)C(O)=C1O', 'Inhibitory concentration', '> 100 mM'),
  ('C=CCSCC=C [DIALLYL SULFIDE]', 'Inhibitory concentration', '> 200 mM');

Attention now shifts to the item below.
May I ask what Inhibitory concentration has been recorded for N[C@@H](CS)C(=O)O ?
> 200 mM
